System: CCRIS mutagenicity, Ames/micronucleus/aberration tests
Experiment: CCRIS mutagenicity studies
Conditions: Test System: AMES SALMONELLA TYPHIMURIUM; Strain/Indicator: TA100; Metabolic Activation: RAT, LIVER, S-9, AROCLOR 1254; Method: PREINCUBATION
Calls of active or inactive are those of the source. How the calls were made is not given here.
Lab note: assign the record to one of yes (1) for active, no (0) for inactive

Look over these answered cases.
molecule | class name
O=C1c2ccccc2C(=O)c2c1cc(O)c(CO)c2O | yes (1)
COc1cc2c(cc1OC)CN(N=O)CC2 | yes (1)
Cc1cc2c(O)cccc2c2cc3ccccc3cc12 | yes (1)
Oc1ccc(Cl)cc1Cl | no (0)
[Cl][Pd-2]([Cl])([Cl])[Cl] | no (0)

Hi, do you know how `O.O.O=C([O-])C(=O)[O-].O=C([O-])C(=O)[O-].[K+].[K+].[Pt+2]` came out in this test?
no (0)

State the result this test recorded for C1CC2OC2CC1C1CO1 (configuration not stated) .
yes (1)
